target: T1, SARS-CoV-2 S protein RBD, SPD-C5259 (SARS-CoV-2, UniProt P0DTC2 319-537); assay: FACS, inhibition of S protein RBD binding to Vero cells
T1 construct: domain: RBD
measurement_name: IC50 (nM)
Please state the figure in nM; there is no need to write the unit.

These solved cases illustrate the format of a correct answer.
2-8 (antibody, V domains shown) VH: EVQLLESGGGLVQPGGSLRLSCAASGFTFSDFAMAWVRQAPGKGLEWVSAISGSGDITYYADSVKGRFTISRDNSKNTLYLQMNSLRAEDTAVYYCAREADGLHSPWHFDLWGQGTLVTVSS VL: DIQMTQSPSSLSASVGDRVTITCRASQSIDTYLNWYQQKPGKAPKLLIYAASALASGVPSRFSGSGSGTDFTLTISSLQPEDFATYYCQQSYSAPPYTFGQGTKVEIK; 19.5
2-2 (antibody, V domains shown) VH: EVQLLESGGGLVQPGGSLRLSCAASGFTFSRHAMNWVRQAPGKGLEWVSGISGSGDETYYADSVKGRFTISRDNSKNTLYLQMNSLRAEDTAVYYCARDLPASYYDSSGYYWHNGMDVWGQGTLVTVSS VL: DIQMTQSPSSLSASVGDRVTITCRASQTINTYLNWYQQKPGKAPKLLIYSASTLQSGVPSRFSGSGSGTDFTLTISSLQPEDFATYYCQQSYSTFTFGQGTKVEIK; 3
2-4 (antibody, V domains shown) VH: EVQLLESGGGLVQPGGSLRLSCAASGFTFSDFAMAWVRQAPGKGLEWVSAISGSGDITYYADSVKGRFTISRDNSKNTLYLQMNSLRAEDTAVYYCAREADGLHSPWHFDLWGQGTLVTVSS VL: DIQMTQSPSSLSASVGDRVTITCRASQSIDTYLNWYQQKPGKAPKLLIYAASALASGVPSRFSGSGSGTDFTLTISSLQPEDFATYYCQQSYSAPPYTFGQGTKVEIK; 46.3

Let us examine a further case.
Task item: Give its IC50 value. Item: 2-5 (antibody, V domains shown) VH: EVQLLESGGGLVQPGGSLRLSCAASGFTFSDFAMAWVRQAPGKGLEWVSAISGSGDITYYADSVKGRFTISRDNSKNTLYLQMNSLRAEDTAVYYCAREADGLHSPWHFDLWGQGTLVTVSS VL: DIQMTQSPSSLSASVGDRVTITCRASQSIHTYLNWYQQKPGKAPKLLIYAASALASGVPSRFSGSGSGTDFTLTISSLQPEDFATYYCQQSYSAPPYTFGQGTKVEIK
Reply: 4.4
